Values were extracted from patent US8791143B2.

experiment: log P by HPLC on reversed-phase columns (EEC Directive 79/831 Annex V.A8); format: physicochemical; details: pH 2.7, log P
chromatographic logP vs 3: at or above is t, below is f.

Cc1cc(Cl)cc(C(=O)NCc2cccc(F)c2)c1NC(=O)c1cc(Cn2nnc(C(F)(F)F)n2)nn1-c1ncccc1Cl | t
Cc1cc(C#N)cc(C(=O)NC2COC2)c1NC(=O)c1cc(Cn2nnnc2C(F)(F)F)nn1-c1ncccc1Cl | f
Cc1cc(Cl)cc(C(=O)N[C@@H]2CCOC2=O)c1NC(=O)c1cc(Cn2nnc(C(F)(F)C(F)(F)F)n2)nn1-c1ncccc1Cl | t
Cc1cc(Cl)cc(C(=O)NCC2CCCO2)c1NC(=O)c1cc(Cn2nnc(C(F)(F)F)n2)nn1-c1ncccc1Cl (stereo not shown) | t
Cc1ccc(Cl)c(C(=O)NCc2ccc(Cl)cc2)c1NC(=O)c1cc(Cn2nnc(C(F)(F)F)n2)nn1-c1ncccc1Cl | t
Cc1cc(Cl)cc(C(=O)NC2COC2)c1NC(=O)c1cc(Cn2cc(Br)c(C(F)(F)F)n2)nn1-c1ncccc1Cl | t
Cc1ccc(CNC(=O)c2cc(Cl)cc(C)c2NC(=O)c2cc(Cn3nnc(C(F)(F)F)n3)nn2-c2ncccc2Cl)nc1C | f
Cc1cc(Cl)cc(C(=O)NCc2cc(Cl)ccn2)c1NC(=O)c1cc(Cn2nnc(C(F)(F)F)n2)nn1-c1ncccc1Cl | t
Cc1cc(Cl)cc(C(=O)NCc2ccc(Cl)cc2Cl)c1NC(=O)c1cc(Cn2nnc(C(F)(F)F)n2)nn1-c1ncccc1Cl | t
COc1cccc(CNC(=O)c2cc(Cl)cc(C)c2NC(=O)c2cc(Cn3nnc(C(F)(F)F)n3)nn2-c2ncccc2Cl)c1 | t
Cc1cc(C#N)cc(C(=O)NC2=NCCS2)c1NC(=O)c1cc(Cn2nnc(C(F)(F)C(F)(F)F)n2)nn1-c1ncccc1Cl | t
Cc1cc(Cl)cc(C(=O)NCc2ccc(Cl)nc2)c1NC(=O)c1cc(Cn2nnc(C(F)(F)F)n2)nn1-c1ncccc1Cl | t
O=C(NC1COC1)c1cc(Cl)cc(Cl)c1NC(=O)c1cc(Cn2nnc(C(F)F)n2)nn1-c1ncccc1Cl | f
